assay target: Peroxisome proliferator-activated receptor gamma (Homo sapiens)
method: Compound was tested for activation of peroxisome proliferator-activated receptor gamma activity at 1 uM concentration by transactivation assay
endpoint: Activity

CCOC(Cc1ccc(OCCN2C(=O)COc3ccsc32)c(OC)c1)C(=O)O (stereo unspecified) ... 1.2

1: O=C(O)Cc1ccc(OCCCN2C(=O)COc3ccsc32)cc1
2: O=C(O)Cc1ccc(OCCN2C(=O)COc3ccsc32)c(Br)c1
Input line: When the recorded Activity values are compared, which is smaller: that of 1 or that of 2 ? Give the chosen item's label as your response.
Output line: 1

a: CCOC(Cc1cc(Br)c(OCCN2C(=O)COc3ccsc32)c(Br)c1)C(=O)O (stereo unspecified)
b: CCOC(Cc1ccc(OCCN2C(=O)COc3ccsc32)c(Cl)c1)C(=O)O (stereo unspecified)
c: CCOC(Cc1ccc(OCCN2C(=O)COc3ccsc32)c(C)c1)C(=O)O (stereo unspecified)
Input line: Please list these molecules in decreasing order of Activity. Answer format: list of labels, ordered as asked.
Output line: c, b, a

====

assay target: Peroxisome proliferator-activated receptor alpha (Homo sapiens) (UniProt Q07869)
Sequence (whole entry): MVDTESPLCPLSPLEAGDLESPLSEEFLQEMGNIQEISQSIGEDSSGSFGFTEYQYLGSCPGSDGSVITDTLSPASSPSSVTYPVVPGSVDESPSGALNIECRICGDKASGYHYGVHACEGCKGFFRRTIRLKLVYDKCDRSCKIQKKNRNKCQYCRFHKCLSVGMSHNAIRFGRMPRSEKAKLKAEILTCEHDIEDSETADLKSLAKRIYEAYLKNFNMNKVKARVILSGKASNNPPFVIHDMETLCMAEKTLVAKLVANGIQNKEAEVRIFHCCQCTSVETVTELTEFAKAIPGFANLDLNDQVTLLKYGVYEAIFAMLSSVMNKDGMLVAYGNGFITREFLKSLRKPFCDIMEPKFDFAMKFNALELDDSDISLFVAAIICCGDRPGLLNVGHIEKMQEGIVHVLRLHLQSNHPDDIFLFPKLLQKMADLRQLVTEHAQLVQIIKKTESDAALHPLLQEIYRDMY
method: Compound was tested for activation of peroxisome proliferator-activated receptor alpha activity at 50 uM concentration by transactivation assay
endpoint: Activity

Here are 3 molecules together with their reported answers.
CCOC(Cc1ccc(OCCN2C(=O)COc3ccsc32)cc1)C(=O)O (stereo unspecified) ... 8
CCOC(Cc1ccc(OCCN2C(=O)COc3ccsc32)c(OC)c1)C(=O)O (stereo unspecified) ... 0.5
O=C(O)Cc1cc(Br)c(OCCN2C(=O)COc3ccsc32)c(Br)c1 ... 2

I: O=C(O)Cc1ccc(OCCCN2C(=O)COc3ccsc32)cc1
II: O=C(O)Cc1ccc(OCCN2C(=O)COc3ccsc32)c(Br)c1
III: CCOC(Cc1cc(Br)c(OCCN2C(=O)COc3ccsc32)c(Br)c1)C(=O)O (stereo unspecified)
Input line: Rank items: key Activity, increasing. Rank the items, then write their labels in that order.
Output line: I, II, III
(I: 0.5, II: 1.3, III: 5)

====

assay target: Peroxisome proliferator-activated receptor gamma (Homo sapiens)
method: Compound was tested for activation of peroxisome proliferator-activated receptor gamma activity at 1 uM concentration by transactivation assay
endpoint: Activity

Consider the following illustrative entries.
CCOC(Cc1ccc(OCCN2C(=O)COc3ccsc32)cc1)C(=O)O (centres undefined) ... 16
O=C(O)Cc1cc(Br)c(OCCN2C(=O)COc3ccsc32)c(Br)c1 ... 15

1: O=C(O)Cc1ccc(OCCN2C(=O)COc3ccsc32)cc1
2: CCOC(Cc1ccc(OCCN2C(=O)COc3ccsc32)c(Br)c1)C(=O)O (centres undefined)
Input line: # query: argmin of Activity over 1 and 2 Refer to your chosen item by its label in the answer.
Output line: 2

====

assay target: Peroxisome proliferator-activated receptor alpha (Homo sapiens) (UniProt Q07869)
method: Compound was tested for activation of peroxisome proliferator-activated receptor alpha activity at 50 uM concentration by transactivation assay
endpoint: Activity

A: CCOC(Cc1ccc(OCCN2C(=O)COc3ccsc32)c(Br)c1)C(=O)O (centres undefined)
B: CCOC(Cc1ccc(OCCN2C(=O)COc3ccsc32)c(Cl)c1)C(=O)O (centres undefined)
C: O=C(O)Cc1ccc(OCCN2C(=O)COc3ccsc32)cc1
D: CCOC(Cc1ccc(OCCN2C(=O)COc3ccsc32)c(C)c1)C(=O)O (centres undefined)
Input line: With regard to Activity, arrange the entries in ascending order, please. Present the labels in the sequence the task asks for.
Output line: D, B, C, A

Data provenance: ChEMBL document CHEMBL1136545
